# credit: PubChem BioAssay (NCI)

Tested on: HCT-116 colon
Assay: NCI-60 one-dose screen, 48 h
Details: 10 µM unless noted
Method: Growth inhibition of the HCT-116 human tumor cell line is measured as a screen for anti-cancer activity. Cells are grown in 96 well plates and exposed to the test compound for 48 hours. Compounds are tested at a single concentration, which is 10^-5 M for most compounds. The reported endpoint is percent growth (GI% or GIPRCNT), where numbers from 0 - 100% represent growth inhibition, and numbers from -100% - 0 represent cell death. For example, a value of 40 represents 60% growth inhibition. […]
Compounds without any hit were thinned out: in the full panel of roughly 83,000, 20% have a hit. Active and inactive are the calls of the source. The calls were made as follows: active = growth percent below 10; inactive = the rest.
Possible outcomes: active, inactive

COc1cc(OC)cc(C2C(C#N)=C(N)Oc3c2ccc2ccc(O)cc32)c1 (centres undefined) :: active
Cc1ccc(S(=O)(=O)n2cc(C3C(Cl)C(=O)N3c3ccc(N4CCOCC4=O)cc3)c3ccccc32)cc1 (centres undefined) :: inactive
Cn1cc(-c2csc(-c3cn(C(=O)OC(C)(C)C)c4ccccc34)n2)c2ccnc(Cl)c21 :: inactive
CCCCCCCCn1ccc2cc(NC(=O)Cn3cc(CN4CCN(CC)CC4)nn3)ccc21 :: inactive
N=c1c2c(=N)n3c(nc2nc2n1-c1ccccc1Sc1ccccc1-2)sc1cc(Cl)ccc13 :: inactive
CC(=O)N(Cc1ccccc1)c1nc2ccc(O)c(CN(C)C)c2s1 :: inactive
CS(=O)(=O)Nc1cncc(-c2ccc3ncnc(Nc4ccc(F)c(Cl)c4)c3c2)c1 :: inactive
O=C1OCC2=C1C(c1cccc(F)c1)c1cc3c(cc1N2CCO)OCO3 (centres undefined) :: inactive
CN1CCN(Cc2cc(NC(=O)c3cccc(C#Cc4cccc5[nH]nc(N)c45)c3)cc(C(F)(F)F)c2)CC1 :: active
